target_of_assay: Prostaglandin E2 receptor EP3 subtype (Mus musculus, UniProt P30557)
Sequence (P30557 whole entry): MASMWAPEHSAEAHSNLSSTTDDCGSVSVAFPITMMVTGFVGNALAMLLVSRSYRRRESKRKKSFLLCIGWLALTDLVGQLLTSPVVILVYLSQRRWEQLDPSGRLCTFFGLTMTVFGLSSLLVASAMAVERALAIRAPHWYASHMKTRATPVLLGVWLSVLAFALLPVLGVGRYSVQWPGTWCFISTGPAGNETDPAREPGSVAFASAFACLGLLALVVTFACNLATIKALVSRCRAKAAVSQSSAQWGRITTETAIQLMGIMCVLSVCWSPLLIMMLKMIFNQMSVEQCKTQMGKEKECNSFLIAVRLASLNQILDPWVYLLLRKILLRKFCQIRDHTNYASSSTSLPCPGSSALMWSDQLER
experiment_notes: Antagonist activity at mouse EP3 receptor expressed in CHO cells assessed as inhibition of PGE2-induced increase in intracellular calcium level after 1 hr by FDSS in presence of 1% bovine serum albumin
Listed below: IC50 values for each entry.
State the answer as a number, implicitly in nM.

test_smiles: O=C(CCc1ccc(Cn2cccn2)cc1OCCc1cccc(N2CCOCC2)c1)NS(=O)(=O)c1ccc(F)c(F)c1
target_of_assay: Prostaglandin E2 receptor EP3 subtype (Mus musculus, UniProt P30557)
readout_value: 6.4

test_smiles: Cc1csc(S(=O)(=O)NC(=O)CCc2ccc(Cn3cccn3)cc2OCCc2ccc3ccccc3c2)n1
target_of_assay: Prostaglandin E2 receptor EP3 subtype (Mus musculus, UniProt P30557)
readout_value: 110

test_smiles: O=C(CCc1ccc(Cn2cccn2)cc1OCCOc1ccccc1)NS(=O)(=O)c1ccc(F)c(F)c1
target_of_assay: Prostaglandin E2 receptor EP3 subtype (Mus musculus, UniProt P30557)
readout_value: 51

test_smiles: Cc1ccc(S(=O)(=O)NC(=O)CCc2ccc(Cn3cccn3)cc2OCCc2ccc3ccccc3c2)o1
target_of_assay: Prostaglandin E2 receptor EP3 subtype (Mus musculus, UniProt P30557)
readout_value: 88

test_smiles: CN(C)Cc1ccc(CCC(=O)NS(=O)(=O)c2ccc(F)c(F)c2)c(OCCc2ccc3ccccc3c2)c1
target_of_assay: Prostaglandin E2 receptor EP3 subtype (Mus musculus, UniProt P30557)
readout_value: 24

test_smiles: O=C(CCc1ccc(Cn2cccn2)cc1OCCc1ccc2ccccc2c1)NS(=O)(=O)c1ccc(Cl)c(Cl)c1
target_of_assay: Prostaglandin E2 receptor EP3 subtype (Mus musculus, UniProt P30557)
readout_value: 7.8

test_smiles: N#Cc1cccc(OCc2ccc(CCC(=O)NS(=O)(=O)c3ccc(F)c(F)c3)c(OCCc3ccc4ccccc4c3)c2)c1
target_of_assay: Prostaglandin E2 receptor EP3 subtype (Mus musculus, UniProt P30557)
readout_value: 24

Next:
Give IC50 for the following molecule: `O=C(CCc1ccc(CN2CCOCC2)cc1OCCc1ccc2ccccc2c1)NS(=O)(=O)c1ccc(F)c(F)c1`
47

---

target_of_assay: Prostaglandin E2 receptor EP1 subtype (Mus musculus)
Sequence (P35375 whole entry): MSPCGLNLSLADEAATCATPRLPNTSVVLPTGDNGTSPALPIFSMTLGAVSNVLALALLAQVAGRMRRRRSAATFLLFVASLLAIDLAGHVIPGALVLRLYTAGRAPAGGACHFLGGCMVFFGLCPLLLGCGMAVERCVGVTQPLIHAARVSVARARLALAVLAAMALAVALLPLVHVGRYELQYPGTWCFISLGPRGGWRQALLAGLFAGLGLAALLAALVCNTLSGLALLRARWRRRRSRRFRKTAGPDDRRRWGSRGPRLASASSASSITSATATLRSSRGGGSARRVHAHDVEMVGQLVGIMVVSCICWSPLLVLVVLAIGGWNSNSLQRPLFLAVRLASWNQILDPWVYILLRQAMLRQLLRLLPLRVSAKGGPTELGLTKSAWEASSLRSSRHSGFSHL
// reported pKi for each item listed
Remember, pKi is on a log scale: it is -log10 of the molar concentration.

Example entries begin here.
test_smiles: CN(CCOc1cc(Cn2cccn2)ccc1CCC(=O)NS(=O)(=O)c1ccc(F)c(F)c1)c1ccccc1
target_of_assay: Prostaglandin E2 receptor EP1 subtype (Mus musculus)
pKi: 6.59

test_smiles: O=C(CCc1ccc(Cn2cccn2)cc1OCCc1ccc2ccccc2c1)NS(=O)(=O)c1ccc(F)c(F)c1
target_of_assay: Prostaglandin E2 receptor EP1 subtype (Mus musculus)
pKi: 5.68

test_smiles: O=C(CCc1ccc(Cn2cccn2)cc1OCCc1ccccc1)NS(=O)(=O)c1ccc(F)c(F)c1
target_of_assay: Prostaglandin E2 receptor EP1 subtype (Mus musculus)
pKi: 5.89

Supply recorded pKi for `O=C(CCc1ccc(CN2CCOCC2)cc1OCCc1ccc2ccccc2c1)NS(=O)(=O)c1ccc(F)c(F)c1` here.
5.30

# credit: ChEMBL document CHEMBL1156219
